# Assay: Metabolic stability in human liver microsomes assessed as parent compound remaining incubated for 60 mins in presence of NADPH by LC-MS/MS analysis
# Type: ADME, Microsome
# Conditions used: read-out: Stability
# remaining at 1 h per entry
Measurement name: remaining at 1 h (%)

[[record]]
compound = "C[C@@H]1Cc2c([nH]c3ccccc23)[C@@H](c2c(F)cc(NC3CN(CC[S+]([O-])CCCC(F)(F)C(F)(F)F)C3)cc2F)N1CC(F)(F)CO (stereo not given in full)"
measured = 29.1

[[record]]
compound = "C[C@@H]1Cc2c([nH]c3ccccc23)[C@@H](c2c(F)cc(NC3CN(CCC[S+]([O-])CCCC(F)(F)C(F)(F)F)C3)cc2F)N1CC(F)(F)CO (stereo not given in full)"
measured = 60.1

[[record]]
compound = "C[C@@H]1Cc2c([nH]c3ccccc23)[C@@H](c2c(F)cc(OC3CN(CC[S+]([O-])CCCC(F)(F)C(F)(F)F)C3)cc2F)N1CC(F)(F)F (stereo not given in full)"
measured = 24.9

[[record]]
compound = "C[C@@H]1Cc2c([nH]c3ccccc23)[C@@H](c2c(F)cc(NC3CN(CCC[S+]([O-])CCCC(F)(F)C(F)(F)F)C3)cc2F)N1CC(F)(F)F (stereo not given in full)"
measured = 57.4

[[record]]
compound = "C[C@@H]1Cc2c([nH]c3ccccc23)[C@@H](c2c(F)cc(NC3CN(CC[S+]([O-])CCCC(F)(F)C(F)(F)F)C3)cc2F)N1CC(F)(F)F (stereo not given in full)"
measured = 43

